All values here come from patent US20110318339A1.

For each entry below, report its ELISA absorbance at 450 nm value.
- experimentalSystem: T1, recombinant human DLL4 (Cat# 1506-D4/CF, R&D Systems) (human, UniProt Q9NR61 27-529)
- T1 construct: Bought protein; also called hDLL4; rHuman DLL4
- method: ELISA, DLL4 coated, Fab 20 nM
One number for each entry, in A450.

Please review the following examples before continuing.
| binder | recordedMetric | value |
| --- | --- | --- |
| Fab VH1-46_IGHD6-6*01_IGHJ1*01 S102A/S103P/S104F/H111F I51A/N52L/S54T/G56H & L6_IGKJ1*01 S28N/S30D/S31H S52L/A55G (Fab, V domains shown, Fab made in E. coli: VH on CH1 with His6 and Flag tags (Plasmid A), VL on kappa CL (Plasmid C); also called H: APFF ALTH & L: NDH LG) VH: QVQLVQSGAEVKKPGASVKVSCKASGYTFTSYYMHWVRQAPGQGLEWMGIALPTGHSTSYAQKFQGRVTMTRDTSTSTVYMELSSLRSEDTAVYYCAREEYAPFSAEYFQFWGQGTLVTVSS VL: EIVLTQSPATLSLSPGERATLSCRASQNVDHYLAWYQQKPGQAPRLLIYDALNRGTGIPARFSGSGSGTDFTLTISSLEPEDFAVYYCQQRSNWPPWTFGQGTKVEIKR | ELISA absorbance at 450 nm | 0.39 |
| Fab VH5-51_IGHD5-18*01>3_IGHJ4*01 G100K/G104T & V3-4_IGLJ1*01 M94R/S96M (Fab, V domains shown, Fab made in E. coli: VH on CH1 with His6 and Flag tags (Plasmid A), VL on lambda CL (Plasmid E); also called H: KT & L: RM) VH: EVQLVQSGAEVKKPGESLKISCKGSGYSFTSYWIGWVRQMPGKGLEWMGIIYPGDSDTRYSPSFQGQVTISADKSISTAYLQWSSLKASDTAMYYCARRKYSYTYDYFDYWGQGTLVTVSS VL: QTVVTQEPSFSVSPGGTVTLTCGLSSGSVSTSYYPSWYQQTPGQAPRTLIYSTNTRSSGVPDRFSGSILGNKAALTITGAQADDESDYYCVLYRGMGISYVFGTGTKVTVL | ELISA absorbance at 450 nm | 0.087 |
| Fab VH1-46_IGHD6-6*01_IGHJ1*01 S102A/S103P/S104F/H111F N52L/S54T/G56H & L6_IGKJ1*01 S28N/S30D/S31H (Fab, V domains shown, Fab made in E. coli: VH on CH1 with His6 and Flag tags (Plasmid A), VL on kappa CL (Plasmid C); also called H: APFF LTH & L: NDH) VH: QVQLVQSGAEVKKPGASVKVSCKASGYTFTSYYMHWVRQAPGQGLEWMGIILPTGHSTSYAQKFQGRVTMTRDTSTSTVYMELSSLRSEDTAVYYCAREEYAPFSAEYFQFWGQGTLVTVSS VL: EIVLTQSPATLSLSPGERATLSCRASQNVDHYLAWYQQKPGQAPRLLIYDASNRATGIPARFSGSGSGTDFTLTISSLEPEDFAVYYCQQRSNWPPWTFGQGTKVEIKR | ELISA absorbance at 450 nm | 0.863 |
| Fab VH5-51_IGHD5-18*01>3_IGHJ4*01 G100K/G104T G24L/S28R/G35V & V3-4_IGLJ1*01 (Fab, V domains shown, Fab made in E. coli: VH on CH1 with His6 and Flag tags (Plasmid A), VL on lambda CL (Plasmid E); also called H: KT LRV & L: wt) VH: EVQLVQSGAEVKKPGESLKISCKLSGYRFTSYWIVWVRQMPGKGLEWMGIIYPGDSDTRYSPSFQGQVTISADKSISTAYLQWSSLKASDTAMYYCARRKYSYTYDYFDYWGQGTLVTVSS VL: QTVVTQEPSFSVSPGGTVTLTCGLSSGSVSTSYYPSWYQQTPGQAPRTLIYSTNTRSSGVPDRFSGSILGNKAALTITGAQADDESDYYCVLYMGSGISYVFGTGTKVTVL | ELISA absorbance at 450 nm | 0.027 |

Give ELISA absorbance at 450 nm for the following binder: Fab VH1-46_IGHD6-6*01_IGHJ1*01 S102A/S103P/S104F/H111F I51V/N52L/S54T/G56H & L6_IGKJ1*01 S28N/S30D/S31H (Fab, V domains shown, Fab made in E. coli: VH on CH1 with His6 and Flag tags (Plasmid A), VL on kappa CL (Plasmid C); also called H: APFF VLTH & L: NDH) VH: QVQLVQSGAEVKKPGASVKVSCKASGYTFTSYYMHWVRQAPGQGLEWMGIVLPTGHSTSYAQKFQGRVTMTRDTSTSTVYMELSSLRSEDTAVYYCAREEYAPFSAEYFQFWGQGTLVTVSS VL: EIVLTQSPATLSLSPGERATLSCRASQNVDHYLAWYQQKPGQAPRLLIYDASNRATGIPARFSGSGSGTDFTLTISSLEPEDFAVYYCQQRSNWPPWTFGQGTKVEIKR
0.979
